# test: Pharmacokinetic evaluation, C57 mouse test
# Type: in vivo
# recordedConditions: female, mouse, plasma, po; C57 mice, i.g., 2.0 mg/kg; read-out: Apparent distribution volume Vz/F
resultType: Vd/F (L/kg)
Kindly provide the numeric value in L/kg only, without the unit symbol.

// query Vd/F value for entry CC(C)C[C@H]1CCc2cc(O)ccc2[C@H]1c1ccc(N2CCC(CN3CCN(c4ccc5c(c4)CN([C@H]4CCC(=O)NC4=O)C5=O)CC3)CC2)cc1
28.3

----------
# test: Pharmacokinetic evaluation, SD rat test
# Assay type: in vivo
# recordedConditions: both sexes, rat, plasma, po; SD rats, i.g., 2.0 mg/kg; read-out: Plasma concentration Cmax
resultType: Cmax (ng/mL)
Response body: numeric value in ng/mL, unit text excluded.

Requested read-out: Cmax. Entry: CC(C)C[C@H]1CCc2cc(O)ccc2[C@H]1c1ccc(N2CCC(CN3CCN(c4ccc5c(c4)CN([C@H]4CCC(=O)NC4=O)C5=O)CC3)CC2)cc1
32.9

----------
# test: Pharmacokinetic evaluation, SD rat test
# Format: in vivo
# recordedConditions: both sexes, rat, plasma, po; SD rats, i.g., 2.0 mg/kg; read-out: Half-life T1/2 (converted)
resultType: half-life
Please don't drop the unit; write it after the number.

Any idea what its half-life is? The molecule is CC(C)C[C@H]1CCc2cc(O)ccc2[C@H]1c1ccc(N2CCC(CN3CCN(c4ccc5c(c4)CN([C@H]4CCC(=O)NC4=O)C5=O)CC3)CC2)cc1
4.4 h

----------
# test: Pharmacokinetic evaluation, C57 mouse test
# Type: in vivo
# recordedConditions: female, mouse, plasma, iv; C57 mice, i.v., 1.0 mg/kg; read-out: Plasma concentration Cmax
resultType: Cmax (ng/mL)
Your answer should be a plain number; it is taken to be in ng/mL.

What does the data say about its Cmax? Entry: CC(C)C[C@H]1CCc2cc(O)ccc2[C@H]1c1ccc(N2CCC(CN3CCN(c4ccc5c(c4)CN([C@H]4CCC(=O)NC4=O)C5=O)CC3)CC2)cc1
1220

----------
# test: Solubility in FassIF and FessIF solution
# Format: physicochemical
# recordedConditions: thermodynamic from solid, FassIF solution pH 6.5, 37° C., read-out: Solubility in FassIF solution
# Procedure: Solution (A): 4.441 g of NaH2PO4·2H2O, 0.348 g of NaOH granules and 6.186 g of NaCl were added to 900 mL of ultrapure water and well mixed, and the solution was adjusted to pH 6.5±0.05 with 1 M NaOH, brought to volume (1000 mL) with water, and stored at 4° C. for future use. FaSSIF solution (B): 0.161 g of sodium taurocholate (NaTC) and 59 mg of lecithin were dissolved in 20 mL of solution (A). […]
resultType: solubility at 24 h (µM)
Give the value, in units of µM, as a plain number.

Which solubility at 24 h is listed for CC(C)C[C@H]1CCc2cc(O)ccc2[C@H]1c1ccc(N2CCC(CN3CCN(c4ccc5c(c4)CN([C@H]4CCC(=O)NC4=O)C5=O)CC3)CC2)cc1 ?
97

----------
# test: Pharmacokinetic evaluation, C57 mouse test
# Format: in vivo
# recordedConditions: female, mouse, plasma, po; C57 mice, i.g., 2.0 mg/kg; read-out: Half-life T1/2 (converted)
resultType: half-life (h)
Respond numerically; units are h and should not be typed.

Give the measured half-life of CC(C)C[C@H]1CCc2cc(O)ccc2[C@H]1c1ccc(N2CCC(CN3CCN(c4ccc5c(c4)CN([C@H]4CCC(=O)NC4=O)C5=O)CC3)CC2)cc1 .
5.3
